system: 463943-066-T-J2-PDC complex spheroid growth; test: Anticancer human tumor 463943-066-T-J2-PDC patient-derived colon adenocarcinoma cell line growth inhibition [Asc]; conditions: second compound 0.949 µM; first compound 0.316 µM; stronger effect = lower value;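 further: compound exposure lasted 7 days; 100% = DMSO vehicle control wells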

>  <molecule>
C=C(F)C(=O)N1CCN(c2nc(OCC3CCCN3C)nc3c2CCN(c2cccc4cccc(Cl)c24)C3)CC1CC#N (configuration not stated) + CCN1C(C(=O)NC23CCC(C(=O)O)(CC2)CC3)C(c2cccc(Cl)c2F)C2(C(=O)Nc3cc(Cl)ccc32)C12CCCCC2

>  <uom>
%

>  <viability, T/C>
76

$$$$
>  <molecule>
COc1c(OCCCN2CCOCC2)ccc2c3n(c(=NC(=O)c4cnc(N)nc4)nc12)CCN3 + CCN1C(C(=O)NC23CCC(C(=O)O)(CC2)CC3)C(c2cccc(Cl)c2F)C2(C(=O)Nc3cc(Cl)ccc32)C12CCCCC2

>  <uom>
%

>  <viability, T/C>
35.1

$$$$

Source of measurements: PubChem BioAssay AID1963422
